# Test system: SK-MEL-28 melanoma
# assay-summary: NCI tumour cell line growth inhibition, 48 h
outcome-measure: TGI

The cases that follow already have their TGI on record.
- compound: "CN(CCN1C(=O)c2cc([N+](=O)[O-])cc3cc([N+](=O)[O-])cc(c23)C1=O)CCN1C(=O)c2cc([N+](=O)[O-])cc3cc([N+](=O)[O-])cc(c23)C1=O"
  assayed-target: "SK-MEL-28 melanoma"
  TGI: "20.3 µM"
- compound: "OC(c1ccc(F)cc1)C(F)(F)c1nc2ccccc2o1 (centres undefined)"
  assayed-target: "SK-MEL-28 melanoma"
  TGI: "> 100 µM"
- compound: "O=C1CSCc2sccc21"
  assayed-target: "SK-MEL-28 melanoma"
  TGI: "> 100 µM"
- compound: "Cn1c2c(c3ccccc31)CCN(CCCCN1CCCCC1)C2=O"
  assayed-target: "SK-MEL-28 melanoma"
  TGI: "> 100 µM"
- compound: "CC(C)C1=CC(=O)C(C)(C2C(O)CC3(C)C4CC=C5C(CCC(OC6OC(CO)C(O)C(O)C6OC6OC(C)C(O)C(O)C6O)C5(C)C)C4(C)C(=O)CC23C)O1 (centres undefined)"
  assayed-target: "SK-MEL-28 melanoma"
  TGI: "> 100 µM"
- compound: "CCN1C/C(=C\\c2cc(OC)c(OC)cc2OC)C(=O)/C(=C/c2cc(OC)c(OC)cc2OC)C1"
  assayed-target: "SK-MEL-28 melanoma"
  TGI: "5.6 µM"
- compound: "CC(=O)OCC1OC(n2cc(F)c(=O)[nH]c2=O)C(NC(=O)N(CCCl)N=O)C(OC(C)=O)C1OC(C)=O (centres undefined)"
  assayed-target: "SK-MEL-28 melanoma"
  TGI: "> 100 µM"
- compound: "O=C(O)CN1C=C(C(=O)c2cc3ccccc3n2S(=O)(=O)c2ccccc2)CCC1"
  assayed-target: "SK-MEL-28 melanoma"
  TGI: "> 100 µM"

We next turn to a different compound, shown below.
Return reported TGI; argument: CCOC(=O)c1c(N)n(-c2ccccc2)c(=O)n(-c2ccccc2)c1=O > 100 µM

* * *

# System: T-47D breast
# assay-summary: NCI tumour cell line growth inhibition, 48 h
TGI values by entry

Look up TGI with T-47D breast for this compound: COc1cc(OC)c2c(c1)OC(c1ccccc1)CC2=O (centres undefined) > 10 µM

* * *

# Test system: SK-MEL-2 melanoma
# assay-summary: NCI tumour cell line growth inhibition, 48 h
outcome-measure: TGI (µM)
Just the number in µM, nothing appended.

- compound: "CCN(CCCN(C)C)Cc1cc(I)cc(C)c1O"
  TGI, µM: 37.4

Return reported TGI; argument: CC(C)(C)OC(=O)NC(CCCCNC(=O)OCc1ccccc1)C(=O)NCCNc1ccc(NCCNC(=O)C(CCCCNC(=O)OCc2ccccc2)NC(=O)OC(C)(C)C)c2c1C(=O)c1ccccc1C2=O (centres undefined) 20.5

Return reported TGI; argument: C=C1CC[C@@H]2[C@](C)(COC(C)=O)[C@H](OC(C)=O)CC[C@@]2(C)[C@@H]1CC(Nc1ccc(S(=O)(=O)NC(C)=O)cc1)C1=CCOC1=O (some centres undefined) 19.1

Return reported TGI; argument: CC(=O)OC1CC[C@@]2(C)C(=CC[C@@H]3[C@@H]2CC[C@]2(C)Nc4nn(S(C)(=O)=O)cc4C[C@@H]32)C1 (some centres undefined) 58.8
